# method: Effect of temperature and solvent on the equilibrium composition of the pteropodine isomers
# Assay type: physicochemical
# assay.context: 25° C., water
# Procedure: | Effect of temperature and solvent on the equilibrium composition | of the pteropodine isomers (temperature from 25 to | 50° C., % per weight) The use of solvents with different polarity gave different equilibria, while other conditions were identical.
Listing of recorded equilibrium composition by entry.

Example entries and their recorded answers appear below.
molecule: COC(=O)C1=COC(C)C2CN3CCC4(C(=O)Nc5ccccc54)C3CC12 (stereo not shown) [Speciophylline, speciophylline]
value: 4.3 % per weight

molecule: COC(=O)C1=COC(C)C2CN3CCC4(C(=O)Nc5ccccc54)C3CC12 (stereo not shown) [Uncarine F, uncarine F]
value: 5.2 % per weight

molecule: COC(=O)C1=CO[C@@H](C)[C@@H]2CN3CC[C@@]4(C(=O)Nc5ccccc54)[C@@H]3C[C@H]12
value: 60.9 % per weight

// next entry
Return equilibrium composition (reported value) for this molecule: COC(=O)C1=COC(C)C2CN3CCC4(C(=O)Nc5ccccc54)C3CC12 (stereo not shown) [Pteropodine, pteropodine]
29.6 % per weight

Reference source: patent US5723625A
